target: Cytochrome P450 2C9 (Homo sapiens); experiment: Cytochrome panel assay with activity outcomes; conditions: recombinant CYP, pro-luciferin dealkylation, luminescence, p450-cyp2c9; series mostly up to 57.1 µM
The campaign covered roughly 16,000 compounds. About 4,000 (25%) were called active. About 26% were inconclusive and are not listed. A selection follows.
Observation Type: AC50

Below: 5 compounds and their reported AC50.
input: Would you mind telling me what AC50 value was observed for CCOC(=O)c1c(C)oc2c1cc(O)c1ccccc12 ?
output: 1.12 µM (active)

input: Query CC(C)CN1CCC2(CC1)CCN(S(=O)(=O)c1ccccc1)CC2 next
output: inactive

input: Another compound: CCCNC(=O)OC[C@H]1O[C@@H](CCO/N=C\[C@@H](NS(=O)(=O)c2ccc(C)cc2)[C@H](C)/C=C\CC(=O)OC)C=C[C@@H]1Oc1ccc(OC)cc1
output: 3.98 µM (active)

input: Okay, and N=c1c(C(=O)NC2CCCC2)cc2c(=O)n3ccccc3nc2n1C1CCCC1 ?
output: inactive

input: Next: O=C(NCCNc1ccc([N+](=O)[O-])cc1)c1ccccc1Br
output: 14.1 µM (active)

Let's switch to this compound now.
input: Dear colleague, I am looking for the recorded AC50 of the following compound: CCOc1c(Cl)cc(C(=O)Nc2ccccc2-c2ccccc2)cc1Cl
output: 2.82 µM (active)
